- Tested on: A2058
- assay name: BrdU cell proliferation assay
- Format: cell-based, human
- experimental setup: Homo sapiens; A2058, 72 h incubation
- Procedure: The BrdU Cell Proliferation Assay is based on the detection of BrdU (5-bromo-2′-deoxyuridine) incorporated into the newly synthesized DNA during the replication process in proliferating cells. The A2058 (5 × 10^3/well) and BLM (5 × 10^3/well) melanoma cells were plated in a 96-well culture plate in 80 μL suitable medium. […]
measurement name: IC50 (µM)

INSERT INTO measurements (sample_smiles, target_or_system, measurement_name, reported_value) VALUES
  ('COc1cccc(OC)c1C(=O)/C=C/c1c2ccccc2nc2ccccc12', 'A2058', 'IC50', 8.4);

---

- Test system: MCF-10A
- assay name: BrdU cell proliferation assay
- Assay type: cell-based
- experimental setup: Homo sapiens; MCF-10A noncancer cell line
measurement name: IC50 (µM)

INSERT INTO results (compound, reported_value) VALUES
  ('COc1cccc(OC)c1C(=O)/C=C/c1c2ccccc2nc2ccccc12 [Compound 1C]', 32.9);

---

- System: BLM
- assay name: BrdU cell proliferation assay
- Type: cell-based, human
- experimental setup: Homo sapiens; BLM, 72 h incubation
measurement name: IC50 (µM)

INSERT INTO measurements (sample_smiles, reported_value) VALUES
  ('COc1cccc(OC)c1C(=O)/C=C/c1c2ccccc2nc2ccccc12', 16.5);
